cell viability values by entry
Test system: U2OS
Assay: cell viability relative to DMSO; higher = less toxic
Conditions: 72 h; 1000 nM

{"MOLECULE SMILES": "CCOC(=O)Nc1cc(-c2ccc(C)c(NS(C)(=O)=O)c2)nn2c(C)nnc12", "UNITS": "%", "cell viability": 79.2}
{"MOLECULE SMILES": "CCCCCCCCCCCCCC(=O)[O-].CCCCCCCCCCCCCC(=O)[O-].N[C@@H]1CCCC[C@H]1N.[Pt+2]", "UNITS": "%", "cell viability": 95.4}
{"MOLECULE SMILES": "CC(C)Nc1nc2cc(Cl)c(Cl)cc2n1[C@H]1O[C@@H](CO)[C@H](O)[C@@H]1O", "UNITS": "%", "cell viability": 102}
{"MOLECULE SMILES": "CCCCCCc1ccc(O)cc1O.Nc1c2ccccc2nc2ccccc12", "UNITS": "%", "cell viability": 96.1}
